List of IC50 values.
TARGET SYSTEM: DNA-PK phosphorylation at Serine 2056 (Homo sapiens)
Construct: FaDu cells were purchased from ATCC; host or cells: FaDu
TEST SUMMARY: Cellular Assay for Inhibition of DNA-PK Phosphorylation at Serine 2056 in FaDu cells (sandwich ELISA, neocarzinostatin)
Assay type: cell-based
DETAILS: pSer2056 DNA-PK, Table 3

// below: answered molecules
- CN1CCN(CCOc2ccnc(N[C@H]3CC[C@@H](Oc4nc(N5CCOCC5)cc5ncc(NS(C)(=O)=O)cc45)CC3)n2)CC1 [LFA2026]: 100 to 1000 nM
- Cc1nc(N[C@H]2CC[C@@H](Oc3nc(N4CCOCC4)cc4ncc(NS(C)(=O)=O)cc34)CC2)ncc1N1CCN(C)CC1 [LFA2038]: < 100 nM
- Cc1cc(C)nc(N[C@H]2CC[C@@H](Oc3nc(N4CCOCC4)cc4ncc(OCc5cnc([N+](=O)[O-])n5C)cc34)CC2)n1 [LFA2081]: 10000 to 30000 nM
- CN1CC[C@H](Oc2cnc(N[C@H]3CC[C@@H](Oc4nc(N5CCOCC5)cc5ncc(NS(C)(=O)=O)cc45)CC3)nc2)C1 [LFA2036]: < 100 nM
- Cc1nc(N[C@H]2CC[C@@H](Oc3nc(N4CCOCC4)cc4ncc(NS(C)(=O)=O)cc34)CC2)ncc1OCCN1CCOCC1 [LFA2040]: < 100 nM

Note to self: IC50 recorded for CC(Oc1cnc2cc(N3CCOCC3)nc(O[C@H]3CC[C@@H](Nc4ccccn4)CC3)c2c1)c1cnc([N+](=O)[O-])n1C (stereo partly drawn) [LFA2084] was 10000 to 30000 nM
